The origin of these recorded values is PubChem BioAssay AID489023.

- Tested on: 697B cells, BCR-induced NF-kB luciferase reporter luminescence
- RUN DESCRIPTION: inhibitors of BCR-induced NF-kB activation, dose response, 697B cells, luciferase luminescence (AID 489023)
Activity calls are given as the source filed them. No rule for the calls is given here.
Select the correct class. Options are y (active), n (inactive) and nothing else.

O=C(NNC(=O)C12CC3CC(CC(C3)C1)C2)c1cccc(O)c1 :: y
Fc1ccc(C2=Nn3c(nnc3-c3n[nH]c4c3CCC4)SC2)cc1 :: n
CNC(=O)c1cc(Nc2nnc(-c3ccc(O)cc3)c3ccccc23)ccc1OC :: n
COc1ccc(-n2c(-c3ccc(Br)cc3)c[n+]3c2CCc2ccccc2-3)cc1 :: n
O=C(NNC(=O)C12CC3CC(CC(Br)(C3)C1)C2)c1ccccc1F :: y
Cc1[nH]c2ccccc2c1/C=N/Nc1nc(Nc2ccc(F)cc2)nc(N2CCOCC2)n1 :: y
N=c1ccn2c(n1)O[C@H]1[C@H](O)[C@@H](CO)O[C@H]12 :: y
Cc1ccc(C(=O)N2CCCC(c3ccc(Cl)cc3)=N2)cc1 :: n
CSc1ccc(-c2nc(CSCC(=O)NC3CC3)c(C)o2)cc1 :: y
O=C(CCCN1C(=O)S/C(=C/C=C/c2ccccc2)C1=O)Nc1ccc(C(=O)O)cc1 :: n

Kindly review the next compound as well.
Request: Could you please tell me the result logged for COc1ccc(NC(=O)c2nnn(Cc3cccc(F)c3)c2N)c(OC)c1 in this assay?
Result: n

----------
- Test system: 697B cells, BCR-induced NF-kB luciferase reporter luminescence
- RUN DESCRIPTION: inhibitors of BCR-induced NF-kB activation, dose response, 697B cells, luciferase luminescence (AID 489023)
Calls of active or inactive are those of the source. How the calls were made is not given here.
OBSERVED PROPERTY: IC50

Previously resolved entries follow.
CCOc1ccc(-c2cc(CCCC(=O)NCCCOC)no2)cc1 :: > 80 µM (inactive)
Cc1ccc(C(=O)CSc2nnc(COc3cc(C)cc(C)c3)o2)cc1 :: > 80 µM (inactive)
CCOC(=O)C1CCN(c2ncnc3c2cnn3-c2ccc(OC)cc2)CC1 :: > 80 µM (inactive)
CCCCCCn1c(-c2ccco2)nc2oc3cc(OC)ccc3c(=O)c2c1=O :: > 80 µM (inactive)
O=C(CCCN1C(=O)/C(=C/c2ccccc2Cl)SC1=S)NNC(=O)c1ccccc1 :: 12.5 µM
COc1ccc(OCc2cccc(C(=O)NN)c2)cc1 :: 2.43 µM
CC(C)(C)c1ccc(-c2cc(N)n[nH]2)cc1 :: 15.6 µM
CCOC(=O)CNC(=O)CSc1nnc(NC(=O)c2ccc(C)cc2)s1 :: 6.84 µM
N=c1c(C(=O)NC2CCCC2)cc2c(=O)n3ccccc3nc2n1CCN1CCOCC1 :: > 80 µM (inactive)
C=CCn1c(O)c(C(CC)=NC(C)c2ccccc2)c(=O)[nH]c1=O (centres undefined) :: 56.4 µM (inactive)

Request: Need IC50 of CCSc1ncc(Cl)c(C(=O)Nc2sc3c(c2C(=O)NCc2cccnc2)CCCC3)n1 , thanks.
Result: > 80 µM (inactive)

Request: Look at this molecule and give its reported IC50. CCNc1nc(C)c2cc(Br)c(=O)n(CC)c2n1
Result: 1.48 µM

Request: Give the measured IC50 of CC1=CC(C)(C)Nc2ccc(OC(=O)C(C)N3C(=O)c4ccccc4C3=O)cc21 (centres undefined) .
Result: 6.85 µM

Request: Need IC50, item Cn1c(=O)n(C)c2cc(NS(=O)(=O)c3ccccc3)ccc21
Result: 38.3 µM (inactive)

----------
- System: 697B cells, BCR-induced NF-kB luciferase reporter luminescence
- RUN DESCRIPTION: inhibitors of BCR-induced NF-kB activation, dose response, 697B cells, luciferase luminescence (AID 489023)
Calls of active or inactive are those of the source. The rule behind the calls is not given here.
API: response.call in class 1 = active, class 0 = inactive

Cn1cnc([N+](=O)[O-])c1Sc1ccc([N+](=O)[O-])cc1 :: class 1
C=CCOc1ccc(/C=C2\SC(=S)N(CCC(=O)O)C2=O)cc1 :: class 1

Request: Hello, I am checking results. What call was entered for Cc1c(CCC(=O)N2CCC(C(=O)O)(c3ccccc3)CC2)c(=O)oc2cc3oc4c(c3cc12)CCCC4 ?
Result: class 0

Request: Can you look up the reported call for COc1ccc(C2=NCc3nnc(C)n3-c3ccc(Cl)cc32)cc1Cl for me?
Result: class 0

Request: Give the logged outcome of this assay for the following compound: Cc1nn(C(C)(C)C)c(OC(=O)c2ccc(Br)o2)c1Sc1ccccc1
Result: class 0

Request: State the result this test recorded for N=c1c2c(n(Cc3cccc(Cl)c3)c3c1CCC3)CCCC2 .
Result: class 0
